Hey, just so you know, these numbers are from ChEMBL document CHEMBL3885861.

# Species: Rattus norvegicus
# ASSAY_REMARKS: Open TG-GATES - Regimen: Daily Repeat
# Format: toxicity, organism-based, Sprague-Dawley
# Set-up: regimen Daily Repeat, gender Male, age 6 weeks
# MEASUREMENT_PARAMETERS: in vivo, po, 300 mg/kg, 72 h, tissue Blood, route gavage, dose level Middle, time 3 day
The following molecules are shown together with reported Neu values.
Provide the reading as a plain figure in %.

Example results:
> print(dat)
                                   molecule  observed.measurement
1  O=C(N[C@H](CO)[C@H](O)c1ccc([N+](=O)[O-])cc1)C(Cl)Cl                  11.6
2                   CC(C)(S)[C@@H](N)C(=O)O                  15.4
3  CCN1CCCC1CNC(=O)c1cc(S(N)(=O)=O)ccc1OC (centres undefined) [SULPIRIDE]                  16.2

Next item in the queue.
input: Return reported Neu. Input molecule: O=C(O)c1cccnc1
output: 19

###

Entries and their measured Lym follow.
# Species on record: Rattus norvegicus
# ASSAY_REMARKS: Open TG-GATES - Regimen: Single
# Type: toxicity, organism-based, Sprague-Dawley
# Set-up: regimen Single, gender Male, age 6 weeks
# MEASUREMENT_PARAMETERS: in vivo, po, 0 mg/kg, 3 h, tissue Blood, route gavage, dose level Control
Note: unit % is implicit; provide only the numeric part.

# count of solved cases: 6
> print(dat)
                                   compound  readout  result.unit  observed.measurement
1  O=C(N[C@H](CO)[C@H](O)c1ccc([N+](=O)[O-])cc1)C(Cl)Cl      Lym            %                  79.8
2           C[C@](N)(Cc1ccc(O)c(O)c1)C(=O)O      Lym            %                    75
3                   CC(C)(S)[C@@H](N)C(=O)O      Lym            %                  79.4
4  CC(C)C(=O)Nc1ccc([N+](=O)[O-])c(C(F)(F)F)c1 [FLUTAMIDE]      Lym            %                    77
5     CCc1oc2ccccc2c1C(=O)c1cc(I)c(O)c(I)c1      Lym            %                  81.8
6          Nc1nc(N)c2nc(-c3ccccc3)c(N)nc2n1      Lym            %                  79.2

input: Quote Lym reported for CN1C(=O)OC(C)(C)C1=O please.
output: 79.8

input: # return recorded Lym for entry CCSCC[C@H](N)C(=O)O
output: 79.6

input: Input C#C[C@]1(O)CC[C@H]2[C@@H]3CCc4cc(O)ccc4[C@H]3CC[C@@]21C , output reported Lym.
output: 79.4

input: Using the record for Oc1ncnc2[nH]ncc12 , state its measured Lym.
output: 73.2

###

# Species: Rattus norvegicus
# ASSAY_REMARKS: Open TG-GATES - Regimen: Daily Repeat
# Assay type: toxicity, organism-based, Sprague-Dawley
# Set-up: regimen Daily Repeat, gender Male, age 6 weeks
# MEASUREMENT_PARAMETERS: in vivo, po, 300 mg/kg, […], tissue Plasma, route gavage, dose level Middle, time 7 day
READOUT: GLC (mg/dL)
API: value field is a number in mg/dL; no unit string.

Below: 3 molecules and their reported GLC.
> print(dat)
                                   molecule  observed.measurement
1  CCN1CCCC1CNC(=O)c1cc(S(N)(=O)=O)ccc1OC (centres undefined) [SULPIRIDE]                 182.2
2  O=C(N[C@H](CO)[C@H](O)c1ccc([N+](=O)[O-])cc1)C(Cl)Cl                 181.2
3                            O=C(O)c1cccnc1                   189

Kindly consider the entry below.
input: Hello, please tell me recorded GLC for this one: CC(C)(S)[C@@H](N)C(=O)O
output: 189.4

###

# Species on record: Rattus norvegicus
# ASSAY_REMARKS: Open TG-GATES - Regimen: Single
# Assay type: toxicity, organism-based, Sprague-Dawley
# Design: regimen Single, gender Male, age 6 weeks
# MEASUREMENT_PARAMETERS: in vivo, po, 0 mg/kg, 24 h, tissue Plasma, route gavage, dose level Control
Parameter: Na. Scope: all listed entries.
Remember to put the unit after the number in your answer.

# annotated cases, reported Na shown
> print(dat)
                                   molecule  observed.measurement
1   CC(C)(S)[C@@H](N)C(=O)O [PENICILLAMINE]           143.4 meq/L
2  CC(=O)Oc1cc(C(C)C)c(OCCN(C)C)cc1C [MOXISYLYTE]             142 meq/L
3           CCSCC[C@H](N)C(=O)O [ETHIONINE]           140.2 meq/L
4                   CC(=N)S [THIOACETAMIDE]             136 meq/L
5  CCC(C)(C)C(=O)O[C@H]1C[C@@H](C)C=C2C=C[C@H](C)[C@H](CC[C@@H]3C[C@@H](O)CC(=O)O3)[C@H]21 [SIMVASTATIN]           139.4 meq/L

Moving on to the next molecule.
input: Quickly give me recorded Na for CCN1CCCC1CNC(=O)c1cc(S(N)(=O)=O)ccc1OC (stereo unspecified) [SULPIRIDE]
output: 141.6 meq/L

###

Listed here: items and their measured Neu.
# Species on record: Rattus norvegicus
# ASSAY_REMARKS: Open TG-GATES - Regimen: Daily Repeat
# Type: toxicity, organism-based, Sprague-Dawley
# Parameters: regimen Daily Repeat, gender Male, age 6 weeks
# MEASUREMENT_PARAMETERS: in vivo, po, 300 mg/kg, […], tissue Blood, route gavage, dose level Middle, time 14 day
Numeric answer only, unit % assumed.

Worked examples follow.
> print(dat)
                                   molecule  observed.measurement
1  CCN1CCCC1CNC(=O)c1cc(S(N)(=O)=O)ccc1OC (centres undefined) [SULPIRIDE]                  17.2
2  O=C(N[C@H](CO)[C@H](O)c1ccc([N+](=O)[O-])cc1)C(Cl)Cl [CHLORAMPHENICOL]                  11.4
3   CC(C)(S)[C@@H](N)C(=O)O [PENICILLAMINE]                  15.2

Kindly consider the entry below.
input: Please give the documented Neu of O=C(O)c1cccnc1 [NIACIN]
output: 21.8

###

The entries below are paired with their reported Plat.
# Organism: Rattus norvegicus
# ASSAY_REMARKS: Open TG-GATES - Regimen: Single
# Assay type: toxicity, organism-based, Sprague-Dawley
# Parameters: regimen Single, gender Male, age 6 weeks
# MEASUREMENT_PARAMETERS: in vivo, po, 0 mg/kg, 6 h, tissue Blood, route gavage, dose level Control
Kindly provide the numeric value in x10_4/uL only, without the unit symbol.

> print(dat)
                                   compound  observed.measurement
1  CCN1CCCC1CNC(=O)c1cc(S(N)(=O)=O)ccc1OC (stereo unspecified) [SULPIRIDE]                 123.5
2          Nc1nc(N)c2nc(-c3ccccc3)c(N)nc2n1                 123.2
3                      CN1C(=O)OC(C)(C)C1=O                 122.3
4                   CC(=N)S [THIOACETAMIDE]                   104
5  O=C(N[C@H](CO)[C@H](O)c1ccc([N+](=O)[O-])cc1)C(Cl)Cl                   109

input: Give a short answer stating reported Plat for CCc1oc2ccccc2c1C(=O)c1cc(I)c(O)c(I)c1 .
output: 116.7

input: State its Plat: C[C@]12CCC(=O)C=C1CC[C@@H]1[C@@H]2CC[C@@]2(C)[C@H]1CC[C@]2(C)O
output: 112.5

input: Look up Plat of CCSCC[C@H](N)C(=O)O and report it.
output: 111.7

input: Kindly indicate its recorded Plat. Item: CC(C)(S)[C@@H](N)C(=O)O
output: 130.7

input: Return Plat (reported value) for this compound: CC(C)C(=O)Nc1ccc([N+](=O)[O-])c(C(F)(F)F)c1 [FLUTAMIDE]
output: 115.8

input: In one line, give reported Plat of the entry Oc1ncnc2[nH]ncc12 .
output: 111.5
